- Test system: cADPR-evoked Ca^2+ release
- procedureDetails: cADPR-evoked Ca2+ release in sea urchin egg homogenate
- Type: biochemical, Strongylocentrotus purpuratus
- conditionDescription: read-out: IC50, inhibition of cADPR-evoked Ca2+ release; sea urchin egg homogenate, cADPR 300 nM
metric: IC50 (nM)

CC1=C(C(=O)OC2CCCCC2)C(c2ccc([N+](=O)[O-])cc2)C2=C(CC(C)(C)CC2=O)N1 (stereo not shown) : 260
